tgt: hM3 (Homo sapiens)
Sequence (P20309 whole entry): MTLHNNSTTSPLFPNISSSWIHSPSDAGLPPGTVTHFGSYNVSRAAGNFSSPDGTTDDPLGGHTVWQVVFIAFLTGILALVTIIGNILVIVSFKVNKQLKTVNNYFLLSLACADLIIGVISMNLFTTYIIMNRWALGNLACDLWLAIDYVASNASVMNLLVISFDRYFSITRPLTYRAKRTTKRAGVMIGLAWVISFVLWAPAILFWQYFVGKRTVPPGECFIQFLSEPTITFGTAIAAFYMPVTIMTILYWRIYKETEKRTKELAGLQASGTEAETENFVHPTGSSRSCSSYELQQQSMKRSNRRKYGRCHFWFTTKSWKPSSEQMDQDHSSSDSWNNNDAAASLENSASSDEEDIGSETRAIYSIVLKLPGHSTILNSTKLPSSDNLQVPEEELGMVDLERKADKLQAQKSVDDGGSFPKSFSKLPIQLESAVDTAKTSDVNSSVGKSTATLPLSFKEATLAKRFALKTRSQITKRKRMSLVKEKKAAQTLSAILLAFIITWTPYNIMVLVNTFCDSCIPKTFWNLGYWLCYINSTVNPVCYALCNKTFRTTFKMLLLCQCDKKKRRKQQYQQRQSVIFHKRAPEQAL
procedureDetails: calcium mobilization assay, hM3 CHO-K1 cells
observedProperty: IC50 (µM)
Number only, in µM; omit the unit.

The recorded IC50 with hM3 (Homo sapiens) for CCN1CCN(c2ccc(NC(=O)c3ccccc3Cl)cc2Cl)CC1 was 8.2
